Reference for the values: PubChem BioAssay (NCI)

- Tested on: SR leukemia
- TEST DESCRIPTION: NCI-60 one-dose screen, 48 h (100 = growth as untreated, 0 = no growth, -100 = all killed)
- STATED CONDITIONS: 10 µM unless noted
The panel holds about 83,000 compounds, 20% with a hit somewhere; the sample as a whole holds those more often. Active and inactive are the calls of the source. How the source made its calls: active means growth percent below 10; inactive means the rest.
Property: growth; scope: individual compounds

Observe how each entry below is paired with its result.
Form field: reported growth of Cc1ccc(C)c2c1CCC2=O 132% (inactive)

Form field: reported growth of N#C/C(=C\NC(=S)N=Nc1c(O)[nH]c2ccccc12)c1nc2ccccc2s1 77.3% (inactive)

Form field: reported growth of COc1ccc2c(c1)Nc1ccccc1S2 118% (inactive)

Form field: reported growth of CCCCCC/C=C\CCCCCCCCCc1cc(O)cc(OC)c1O 0.217% (active)

Form field: reported growth of Cc1ccnc(Nc2nc3ccccc3[nH]2)n1 97.1% (inactive)

Form field: reported growth of COc1ccc(C(=O)C(=O)c2ccccc2)cc1 95.9% (inactive)

---
Form field: reported growth of CC(=O)NC(CCc1ccc(Cl)c(Cl)c1)c1cccc(O)c(=O)c1 (centres undefined) 6.21% (active)

Form field: reported growth of COc1ccc(/C=N/NC(=O)COCC(=O)N/N=C/c2ccc(OC)cc2)cc1 96.7% (inactive)

Form field: reported growth of O=S(=O)(O)c1ccc(O)c(C2CCCCC2)c1 98.3% (inactive)

----------
- Tested on: EKVX NSCLC
- TEST DESCRIPTION: NCI-60 one-dose screen, 48 h
- STATED CONDITIONS: 10 µM unless noted
The panel holds about 83,000 compounds, 20% with a hit somewhere; the sample as a whole holds those more often. Activity calls are given as the source filed them. How the source made its calls: active means growth percent below 10; inactive means the rest.
Return exactly one item of active, inactive

Check out these entries, answers already filled in.
Answer briefly: the call reported for Cc1ccc(C)c(CCO)c1 in this assay. inactive

Answer briefly: the call reported for CCOC(=O)CNC(=O)Sc1ccc(C(C)(C)C)cc1 in this assay. inactive

Answer briefly: the call reported for CCc1ccccc1C(=O)N(CC)CC in this assay. inactive

Answer briefly: the call reported for CC1(c2ccccc2)CO1 (stereo unspecified) in this assay. inactive

Answer briefly: the call reported for COc1ccc(C(=O)C(=O)c2ccccc2)cc1 in this assay. inactive

Answer briefly: the call reported for NC(=S)N/N=C/c1ccc(OC(=O)COc2ccc(Cl)cc2)cn1 in this assay. inactive

Answer briefly: the call reported for CCCCCCCCNC(=O)C(C)C in this assay. inactive

Answer briefly: the call reported for NNc1ncnc2c1ncn2C1OC(CO)C(O)C1O (stereo unspecified) in this assay. inactive

---
Answer briefly: the call reported for O=C1NC(=O)/C(=C\c2ccncc2)N1 in this assay. inactive

Answer briefly: the call reported for C=CCC(OC(C)=O)c1ccc(C(C)C)cc1 (stereo unspecified) in this assay. inactive

Answer briefly: the call reported for Cc1ccc(S(=O)(=O)CCCl)cc1 in this assay. inactive

Answer briefly: the call reported for COc1cc(OC)c2cc(C(=O)c3ccc(C#N)cc3)c(=O)oc2c1 in this assay. inactive

Answer briefly: the call reported for O=C(O)CC1=CCCCC1 in this assay. inactive

Answer briefly: the call reported for OC1Cc2ccccc2C1 in this assay. inactive

Answer briefly: the call reported for CC(c1ccccc1)N1C(=O)CSC1=S (stereo unspecified) in this assay. inactive

Answer briefly: the call reported for CCN(Cc1ccc(Cl)c(Cl)c1)c1ccc2nc(N)nc(N)c2c1C in this assay. active

Answer briefly: the call reported for NC(CSSCC(N)C(=O)O)C(=O)O (stereo unspecified) in this assay. inactive

Answer briefly: the call reported for CC(C)NC(=O)OCc1c(COC(=O)NC(C)C)c(-c2ccc(Cl)cc2)n2c1CCC2 in this assay. inactive

Answer briefly: the call reported for CC(=O)NNC(=S)/N=C\C(C(=O)c1ccccc1)=C(/O)c1ccccc1 in this assay. inactive

Answer briefly: the call reported for C/C(O)=C(/C=N\C(=S)Nc1ccc(S(=O)(=O)Nc2nccs2)cc1)C(=O)Nc1ccccc1C in this assay. inactive

Answer briefly: the call reported for OCc1cccnc1 in this assay. inactive

Answer briefly: the call reported for CC(=O)N(C(C)=O)c1ccc(C)cc1 in this assay. inactive

Answer briefly: the call reported for CNc1ccccc1C(N)=O in this assay. inactive

Answer briefly: the call reported for Nc1cccc2cccc(O)c12 in this assay. inactive

Answer briefly: the call reported for O=C(Oc1ccccc1Cl)c1ccc(Cl)cc1Cl in this assay. inactive

Answer briefly: the call reported for O=c1[nH]c(=O)c2cc(Cl)cc(Cl)c2[nH]1 in this assay. inactive

Answer briefly: the call reported for CC1(C)C2CCC1(C)C1(C2)OCCS1 (stereo unspecified) in this assay. inactive

----------
- Test system: SF-295 CNS
- TEST DESCRIPTION: NCI-60 one-dose screen, 48 h (100 = growth as untreated, 0 = no growth, -100 = all killed)
- STATED CONDITIONS: 10 µM unless noted
This is part of a sample that, as a whole, favours compounds with a hit. Of some 83,000 tested, about 20% had one in any assay.
Property: growth; scope: individual compounds
Hi! Could you send only the number? It should be in %, unit omitted.

Observe how each entry below is paired with its result.
Field: growth (SF-295 CNS). Entry: CCN(C(C)=O)c1ccc([N+](=O)[O-])cc1 108

Field: growth (SF-295 CNS). Entry: O=[n+]1ccn([O-])c2ccccc21 107

Field: growth (SF-295 CNS). Entry: C=CC(C)(C)n1cc(C2=C(O)C(=O)C(c3cn(C(C)(C)C=C)c4ccccc34)=C(O)C2=O)c2ccccc21 83.5

Field: growth (SF-295 CNS). Entry: CC(C)(CC(=O)O)CC(=O)O 110

Field: growth (SF-295 CNS). Entry: OC(CBr)CCBr (stereo not drawn) 94

---
Field: growth (SF-295 CNS). Entry: O=C1C=C(c2ccccc2)C(O)(c2ccccc2)C1 (stereo not drawn) 94.1

Field: growth (SF-295 CNS). Entry: O=CNCCc1ccccc1 95.8

Field: growth (SF-295 CNS). Entry: COc1cc(-c2ccc(NC(=O)CC(C)=O)c(OC)c2)ccc1NC(=O)CC(C)=O 101

Field: growth (SF-295 CNS). Entry: CSCCC(NC(=O)C(Cl)Cl)C(=O)O (stereo not drawn) 98.1

Field: growth (SF-295 CNS). Entry: C#CCSc1nnnn1-c1ccccc1 81.1

----------
- Tested on: MOLT-4 leukemia
- TEST DESCRIPTION: NCI-60 one-dose screen, 48 h
- STATED CONDITIONS: 10 µM unless noted
Compounds without any hit were thinned out: in the full panel of roughly 83,000, 20% have a hit. Activity calls are given as the source filed them. The calls were made as follows: active = growth percent below 10; inactive = the rest.
Return exactly one item of 1 (yes) = active, 0 (no) = inactive

Check out these entries, answers already filled in.
Answer briefly: the call reported for CC(=O)OCC1CCC(COC(C)=O)CC1 (stereo unspecified) in this assay. 0 (no)

Answer briefly: the call reported for Nc1ccn(C2CC(N)C(CO)O2)c(=O)n1 (stereo unspecified) in this assay. 0 (no)

Answer briefly: the call reported for O=C(CC(CC(=O)c1ccccc1)c1ccccn1)c1ccccc1 in this assay. 0 (no)

---
Answer briefly: the call reported for O=C(Nc1ccc([N+](=O)[O-])cc1)C(=O)Nc1ccc([N+](=O)[O-])cc1 in this assay. 0 (no)

Answer briefly: the call reported for Cc1cc(Nc2ccc3c(c2)OCO3)c2cc3c(cc2n1)OCO3 in this assay. 0 (no)

Answer briefly: the call reported for Cc1onc(-c2c(F)cccc2Cl)c1-c1ncc(-c2ccc(Br)cc2)o1 in this assay. 0 (no)

Answer briefly: the call reported for COC(=O)C1=C(C)C(=O)CC1 in this assay. 0 (no)

Answer briefly: the call reported for Nc1c(O)c(S(=O)(=O)O)c(O)c2c1C(=O)c1ccccc1C2=O in this assay. 1 (yes)

----------
- System: OVCAR-3 ovarian
- TEST DESCRIPTION: NCI-60 one-dose screen, 48 h (100 = growth as untreated, 0 = no growth, -100 = all killed)
- STATED CONDITIONS: 10 µM unless noted
This is part of a sample that, as a whole, favours compounds with a hit. Of some 83,000 tested, about 20% had one in any assay.
Property: growth; scope: individual compounds
Hi! Could you send only the number? It should be in %, unit omitted.

Form field: reported growth of Cc1cccc2ccccc12 110

Form field: reported growth of CN(C)c1ccc2nc3ccc(=[N+](C)C)cc-3oc2c1 -10.6

Form field: reported growth of CC(C)Sc1ncnc2nc[nH]c12 120

Form field: reported growth of Cc1cc2c(C(C)C)c(O)c(O)c(C=Nc3ccccc3[N+](=O)[O-])c2c(O)c1-c1c(C)cc2c(C(C)C)c(O)c(O)c(C=Nc3ccccc3[N+](=O)[O-])c2c1O 79.1

Form field: reported growth of Cc1ccc(S(N)(=O)=O)cc1Cl 115

---
Form field: reported growth of C=CC(=O)OC1CCC(C(C)(C)CC)CC1 (stereo not drawn) 109

Form field: reported growth of COC(=O)C1=C(C)C(=O)CC1 114

Form field: reported growth of C=CCC(OC(C)=O)c1ccc(C(C)C)cc1 (stereo not drawn) 162

Form field: reported growth of Cc1cc(C)cc(OCC(=O)O)c1 124

Form field: reported growth of COC1OC(C(COC(C)=O)OC(C)=O)C(OC(C)=O)C(OC(C)=O)C1OC(C)=O (stereo not drawn) 118

Form field: reported growth of O=C(NCc1ccccc1)c1cccc([N+](=O)[O-])c1 106

Form field: reported growth of O=C1NC(=O)C(c2ccccc2)O1 (stereo not drawn) 117

Form field: reported growth of S=C(NCc1ccccc1)N1CCC(CCCC2CCN(C(=S)NCc3ccccc3)CC2)CC1 95

Form field: reported growth of CCCCOC(=O)c1ccc(NC(=O)CCl)cc1 -83.5

Form field: reported growth of CCOC(OCC)C(=O)c1ccccc1 99.9

Form field: reported growth of C1=NCCc2ccccc21 100
